TESTED_TARGET: S1P1 (Homo sapiens (Human), UniProt P21453)
Sequence (P21453 whole entry, species assumed): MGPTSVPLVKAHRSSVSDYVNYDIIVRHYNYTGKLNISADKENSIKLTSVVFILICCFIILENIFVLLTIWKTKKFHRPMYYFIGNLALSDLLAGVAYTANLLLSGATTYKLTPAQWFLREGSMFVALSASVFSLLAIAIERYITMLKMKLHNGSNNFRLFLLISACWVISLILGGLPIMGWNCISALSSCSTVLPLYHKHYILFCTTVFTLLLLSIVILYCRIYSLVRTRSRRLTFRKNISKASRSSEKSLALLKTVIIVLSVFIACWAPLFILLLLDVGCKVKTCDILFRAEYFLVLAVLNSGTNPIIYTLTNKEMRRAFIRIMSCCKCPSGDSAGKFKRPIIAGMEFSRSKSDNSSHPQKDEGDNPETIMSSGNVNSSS
PROTOCOL_TEXT: 35S-GTPγS binding assay, S1P1 membranes
RUN_PARAMETERS: membranes from CHO cells expressing S1P1; read-out: S1P1 GTPyS EC50
pEC50: −log10 of the molar value.
MEASURED_PARAMETER: pEC50

COMPOUND	MEASURED_NUMBER
CCCN(CC1CC1)c1cc(C(=O)Nc2ccc3c(cnn3CC(N)=O)c2)ncn1 [Example 1-117]	5.97
COC(=O)C(C)(C)NCc1ccc(NC(=O)c2cc(N(CC3CC3)C3CCCCC3)ncn2)cc1 [Example 1-83]	5.94
COCCN(CC1CC1)c1cc(C(=O)Nc2ccc(CN)cc2)ncn1 [Example 1-89]	5.83
